For each entry below, report its level at time molar value.
- assay-method-text: Intestinal tract absorptivity (intragastric administration, portal vein perfusate, LC/MS/MS)
- Assay type: in vivo, Wistar rats
- experimental-conditions: rat, po; male Wistar rats, 215 nmol/10 mL intragastrically, portal vein perfusate; read-out: Amount of peptide identified after absorption
Square brackets hold non-standard residues; d marks the D form. Peptide text beside a SMILES is read from it. Hyp = O=C(O)[C@@H]1C[C@@H](O)CN1
Answers are plain numbers, in µM.

| compound | level at time molar, µM |
| --- | --- |
| C[C@H](N)C(=O)N1C[C@H](O)C[C@H]1C(=O)NCC(=O)O [AOG, Ala-Hyp-Gly] (H-Ala-[Hyp]-Gly-OH; N-terminus and C-terminus assumed) | 66.7 |
| O=C(O)CNC(=O)[C@@H]1C[C@@H](O)CN1C(=O)[C@@H]1CCCN1 [POG, Pro-Hyp-Gly] (H-Pro-[Hyp]-Gly-OH; N-terminus and C-terminus assumed) | 129 |
| CC(C)C[C@H](N)C(=O)N1C[C@H](O)C[C@H]1C(=O)NCC(=O)O [LOG, Leu-Hyp-Gly] (H-Leu-[Hyp]-Gly-OH; N-terminus and C-terminus assumed) | 116 |

Request: Fill blank: measured level at time molar of the compound NCC(=O)N1CCC[C@H]1C(=O)N1C[C@H](O)C[C@H]1C(=O)O [GPO, Gly-Pro-Hyp] (H-Gly-Pro-[Hyp]-OH) is ____.
Result: 2.2
